# method: Quantitative highthroughput screen to assess conditional lethalithy of SEM cells grown in RPMI1640 with dialyzed fetal bovine serum (RPMI+ds) (AID 1963884); note: nearly all actives have a fitted effect of over 35% in size
# assay-setup: SEM B-ALL cells, RPMI+dialyzed FBS, CellTiter-Glo viability, 48 h; series mostly up to 45.8 µM
Records with an inconclusive call do not appear. The source made the active and inactive calls. Calls come from the whole dose curve; as a rule, active = well fitted cell-killing curve with a large enough effect; inconclusive = small, poorly fitted or top-dose-only effect, or effect the other way; inactive = no such curve, though single readings can be large or run the other way.
Answer with one of the outcomes active, inactive

NC(=O)c1ccc(-c2nc(-c3ccc4c(c3)OCO4)c(-c3ccccn3)[nH]2)cc1 ... inactive
CN(C)C1CCN(C(=O)c2ccc(NC(=O)Nc3nc(N4CCOCC4)nc(N4CCOCC4)n3)cc2)CC1 ... active
Cn1cnc(-c2cc3nccc(Oc4ccc(NC(=S)NC(=O)Cc5ccccc5)cc4F)c3s2)c1 ... active
OCCn1cc(-c2ccc3c(c2)CCC3=NO)c(-c2ccncc2)n1 ... inactive
Cn1cc(-c2ccc3ncc(Cc4ccc5ncccc5c4)n3n2)cn1 ... active

Field: outcome | Entry: "CN1CCC[C@H]1CCO[C@](C)(c1ccccc1)c1ccc(Cl)cc1"
inactive

Field: outcome | Entry: Clc1ccc(COC(Cn2ccnc2)c2ccc(Cl)cc2Cl)cc1 (centres undefined)
inactive

Field: outcome | Entry: "C[N+](C)(C)CC(=O)O"
inactive

Field: outcome | Entry: "COc1cc([C@@H]2c3cc4c(cc3[C@@H](O[C@@H]3O[C@@H]5CO[C@@H](C)O[C@@H]5[C@H](O)[C@@H]3O)[C@H]3COC(=O)[C@H]23)OCO4)cc(OC)c1O"
active

====

# method: Viability qHTS for spleen associated tyrosine kinase inhibitor (SYKi) drug resistant MV4-11 cells (AID 1963824); note: nearly all actives have a fitted effect of over 35% in size
# assay-setup: SYKi-resistant MV4-11 viability, CellTiter-Glo, 72 h; series mostly up to 45 µM
Records with an inconclusive call do not appear. Active and inactive are the calls of the source. Calls come from the whole dose curve; as a rule, active = well fitted cell-killing curve with a large enough effect; inconclusive = small, poorly fitted or top-dose-only effect, or effect the other way; inactive = no such curve, though single readings can be large or run the other way.
Answer with one of the outcomes active, inactive

O=C(Nc1ccccc1-c1cn2c(CN3CCNCC3)csc2n1)c1ccc2ccccc2n1 ... active

Field: outcome | Entry: CC1(C)CC[C@]2(C(=O)O[C@@H]3O[C@H](CO)[C@@H](O)[C@H](O)[C@H]3O)CC[C@]3(C)C(=CCC4[C@@]5(C)C[C@@H](O)[C@H](O)[C@@](C)(CO)C5CC[C@]43C)C2C1 (some centres undefined)
inactive

Field: outcome | Entry: "Cn1nc(-c2ccc(C(F)(F)F)cc2)nc2c(=O)n(C)c(=O)nc1-2"
active

Field: outcome | Entry: "CC(C)(c1ccc(O)cc1)c1ccc(O)cc1"
active

Field: outcome | Entry: CC1(c2nc3c(C(N)=O)cccc3[nH]2)CCCN1 (centres undefined)
inactive

Field: outcome | Entry: "C#Cc1cccc(Nc2nc3cc(C(=O)O)ccc3c3cncnc23)c1"
active

Field: outcome | Entry: C[C@]12CC[C@@H]3c4ccc(O)cc4C[C@@H](CCCCCCCCCS(=O)CCCC(F)(F)C(F)(F)F)[C@H]3[C@@H]1CC[C@@H]2O (some centres undefined)
inactive

Field: outcome | Entry: "COc1ccc(Cl)c(Nc2ncnc3cc(OCC4CCN(C)CC4)c(OC)cc23)c1"
active

Field: outcome | Entry: NC(=O)COCCN1CCN(C(c2ccccc2)c2ccc(Cl)cc2)CC1 (centres undefined)
inactive

====

# method: Cellular viability qHTS for adrenocortical cancer (ACC) cell line NCI-H295R (AID 1963990); note: nearly all actives have a fitted effect of over 60% in size
# assay-setup: CellTiter-Glo ATP luminescence, 48 h; series mostly up to 46.1 µM
Inconclusive results are not listed. Calls of active or inactive are those of the source. Calls come from the whole dose curve; as a rule, active = well fitted cell-killing curve with a large enough effect; inconclusive = small, poorly fitted or top-dose-only effect; inactive = flat fitted curve, though single readings scatter.
Answer with one of the outcomes True for active, False for inactive

// known answers, use as guide
CCc1cc(Cl)c(OC)c(C(=O)NC[C@@H]2CCCN2CC)c1O ... False
Cc1nc([N+](=O)[O-])cn1-c1ccc([N+](=O)[O-])cc1 ... False
CCn1ccnc1CC1COc2ccccc2O1 (stereo unspecified) ... False

Field: outcome | Entry: "O=C(CCOCCOCCOCCOCCC(=O)Nc1c(I)cc(I)c(C(=O)O)c1I)Nc1c(I)cc(I)c(C(=O)O)c1I"
False

Field: outcome | Entry: "O=C(O)CCC(=O)c1ccc(-c2ccccc2)cc1"
False

Field: outcome | Entry: "CCN1CCN(Cc2ccc(NC(=O)Nc3ccc(Oc4cc(NC)ncn4)cc3)cc2C(F)(F)F)CC1"
True
